# Test system: UACC-257 melanoma
# assay_info: NCI-60 one-dose screen, 48 h
# measurement_setup: 10 µM
About 83,000 compounds went through this panel and 20% of them were active in at least one assay; those are over-represented in the sample as a whole. Calls of active or inactive are those of the source. Rule for the calls: active = growth percent below 10; inactive = the rest.
In this exercise, the only acceptable responses are active, inactive

molecule	target_or_test_system	group_label
O=C(Nc1ccc(Cl)c([N+](=O)[O-])c1)Nc1nc2ccccc2s1	UACC-257 melanoma	inactive
O=C(Nc1ccc(CN2CCc3nc4cc(O)c(O)cc4cc32)cc1)c1ccc(Cl)c(Cl)c1	UACC-257 melanoma	inactive
O=C(Nc1cccc(-n2cc(-c3ccncc3)c(-c3ccc(O)c(Cl)c3)n2)c1)c1cc(C(F)(F)F)cc(C(F)(F)F)c1	UACC-257 melanoma	inactive
CSc1nn(-c2ccccc2)c2ncnc(Oc3ccccc3)c12	UACC-257 melanoma	inactive

Outcome logged for CO/N=C(/C(=O)NC1C(=O)N2C(C(=O)O)=C(COC(N)=O)CSC12)c1ccco1 (stereo not drawn) in this assay:
inactive
